target: Fibroblast growth factor 2 (Homo sapiens) (UniProt P09038); assay: FGF2 binders on small-molecule microarrays, primary screen, biochemical, small-molecule microarray, 635/667 nm fluorescence (AID 1133); details: small-molecule microarray binding, FGF2, fluorescence 635/667; higher = more signal
Sequence (P09038 whole entry, looked up): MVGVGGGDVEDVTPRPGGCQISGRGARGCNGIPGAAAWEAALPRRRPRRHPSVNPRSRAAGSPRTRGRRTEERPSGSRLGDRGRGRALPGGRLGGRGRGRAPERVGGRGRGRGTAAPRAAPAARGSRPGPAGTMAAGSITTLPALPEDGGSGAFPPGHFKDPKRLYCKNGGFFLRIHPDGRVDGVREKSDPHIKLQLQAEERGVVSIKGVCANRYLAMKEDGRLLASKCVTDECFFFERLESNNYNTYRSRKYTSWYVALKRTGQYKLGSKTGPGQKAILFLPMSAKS
Could you label it Fulfilled if measured composite z-score is 0.3 or higher, and Not fulfilled otherwise?

{"columns": ["COMPOUND", "CLASS NAME"],
 "data": [
  ["CC(C)=CCCC(C)=CCON=C1C[C@@H](O)[C@@H](O)[C@@H]2[C@@H]3C(=O)N([C@@H](C)c4ccccc4)C(=O)[C@@H]3CC[C@@H]12", "Fulfilled"],
  ["C[C@@H]1CC[C@H]2C(=O)O[C@@H](COc3ccc(C(C)(C)C)cc3)CN2[C@H]1c1ccc(Br)cc1", "Not fulfilled"],
  ["CCOC(=O)NN=C1C[C@@H](O)[C@@H](O)[C@@H]2[C@@H]3C(=O)N(C[C@@H]4CCCO4)C(=O)[C@@H]3CC[C@H]12", "Fulfilled"],
  ["COc1ccc(O[C@H]2C=C[C@@H](c3ccccc3)O[C@@H]2COC(=O)NCc2cccc3ccccc23)cc1", "Fulfilled"],
  ["COC(=O)[C@H](C)NC(=O)CCC1CC(OC(=O)NCc2ccc3c(c2)OCO3)CC2(CCCC(COC(=O)NCCc3ccc(Cl)cc3)O2)O1 (some centres undefined)", "Fulfilled"],
  ["CC(C)CON=C1[C@H]2CCn3c(=O)n(C)c(=O)n3[C@H]2[C@H](O)[C@@H]2O[C@H]12", "Fulfilled"],
  ["O=C1[C@H]2[C@H]3[C@H](O)[C@H](O)CC(=NOC[C@@H](O)COCc4ccco4)[C@@H]3CC[C@H]2C(=O)N1Cc1ccccc1", "Fulfilled"],
  ["C[C@@H](c1ccccc1)N1C(=O)[C@H]2[C@H]3[C@H](O)[C@H](O)CC(=NOCc4ccccc4)[C@@H]3CC[C@H]2C1=O", "Not fulfilled"],
  ["CCOC(=O)[C@H](CC(C)C)NC(=O)CCC1CC(OC(=O)NCc2ccc3c(c2)OCO3)CC2(CCCC(COC(=O)NCCOC)O2)O1 (some centres undefined)", "Fulfilled"],
  ["C=CC[C@@H]1C=C[C@H](ON=C[C@@H](NS(=O)(=O)c2ccc(C)cc2)[C@H](C)C=CCC(=O)OC)[C@@H](CO)O1", "Fulfilled"],
  ["CC1(C)O[C@H]2O[C@H]([C@H](O)CON=C3[C@H]4CCn5c(=O)n(-c6ccccc6)c(=O)n5[C@H]4[C@H](O)[C@@H]4O[C@H]34)[C@H](O)[C@H]2O1", "Fulfilled"],
  ["C#CCCCON=C1C[C@@H](O)[C@@H](O)[C@@H]2[C@@H]3C(=O)N([C@@H](C)c4ccccc4)C(=O)[C@@H]3CC[C@@H]12", "Not fulfilled"],
  ["CCN1C(=O)[C@H]2[C@H]3[C@H](O)[C@H](O)CC(=NO[C@@H]4O[C@H](CO)[C@@H](O)[C@H](O)[C@H]4O)[C@H]3CC[C@H]2C1=O", "Fulfilled"]
]}

* * *

target: Carbonic anhydrase 2 (Homo sapiens); experiment: CAII small-molecule binders, profiling panel, biochemical, small-molecule microarray, Alexa647-labelled CAII (AID 1122); details: CAII-A647 binding fluorescence, higher = more signal
ASSAY READOUT: composite z-score

{"columns": ["COMPOUND", "ASSAY TARGET", "MEASURED RESULT"],
 "data": [
  ["CC(=O)OC[C@H]1O[C@H](CC=NOC[C@@H](O)[C@H]2O[C@@H]3OC(C)(C)O[C@@H]3[C@H]2O)C=C[C@@H]1OC(C)=O", "Carbonic anhydrase 2 (Homo sapiens)", 0.298],
  ["O=C1CCCC=C1C(O)COCc1ccccc1 (stereo not given)", "Carbonic anhydrase 2 (Homo sapiens)", -0.213],
  ["COc1ccc(COC(=O)NN=C2C[C@@H](O)[C@@H](O)[C@@H]3[C@@H]4C(=O)N([C@@H](C)c5ccccc5)C(=O)[C@@H]4CC[C@H]23)cc1", "Carbonic anhydrase 2 (Homo sapiens)", -0.277],
  ["CCOC(=O)[C@H](CC(C)C)NC(=O)CCC1CC(OC(=O)NCc2ccc3c(c2)OCO3)CC2(CCCC(COC(=O)NCCc3ccc(Cl)cc3)O2)O1 (stereo not given in full)", "Carbonic anhydrase 2 (Homo sapiens)", 0.232],
  ["O=C(NN=C1C[C@@H](O)[C@@H](O)[C@@H]2[C@@H]3C(=O)N(Cc4ccccc4)C(=O)[C@@H]3CC[C@H]12)OCc1ccccc1", "Carbonic anhydrase 2 (Homo sapiens)", -0.253],
  ["CC(C)=CCCC(C)=CCON=C1C[C@@H](O)[C@@H](O)[C@@H]2[C@@H]3C(=O)N(Cc4ccc5c(c4)OCO5)C(=O)[C@@H]3CC[C@@H]12", "Carbonic anhydrase 2 (Homo sapiens)", 0.495],
  ["CCOC(=O)[C@H](Cc1ccccc1)NC(=O)CCC1CC(OC(=O)NCc2ccc3c(c2)OCO3)CC2(CCCC(COC(=O)NCCOC)O2)O1 (stereo not given in full)", "Carbonic anhydrase 2 (Homo sapiens)", 0.134],
  ["CC(C)=NOC(C)CN1CCCCc2nc(C)c(C)cc21 (stereo not given)", "Carbonic anhydrase 2 (Homo sapiens)", 0.418],
  ["COc1ccc(O[C@H]2C=C[C@@H](c3ccccc3)O[C@@H]2COC(=O)CCC(C)=NOC[C@@H](O)COCc2ccco2)cc1", "Carbonic anhydrase 2 (Homo sapiens)", -0.888],
  ["CCc1cc2c(nc1CC)CCN(CCC(C)=NO[C@@H]1O[C@H](COC(C)=O)[C@@H](OC(C)=O)[C@H](OC(C)=O)[C@H]1OC(C)=O)C2", "Carbonic anhydrase 2 (Homo sapiens)", 0.0275],
  ["CC1(C)O[C@H]2OC([C@H](O)CON3C(=O)c4ccccc4C3=O)[C@H](O)[C@H]2O1 (stereo not given in full)", "Carbonic anhydrase 2 (Homo sapiens)", 0.341],
  ["CCc1cc2c(nc1CC)CCN(CCC(C)=NOC(C)CN1CCCCc3nc(C)c(C)cc31)C2 (stereo not given)", "Carbonic anhydrase 2 (Homo sapiens)", 0.467],
  ["CCc1cc2c(nc1CC)CCN(CCC(C)=NOCC[C@@H]1C=C[C@H](OC(C)=O)[C@@H](COC(C)=O)O1)C2", "Carbonic anhydrase 2 (Homo sapiens)", 0.0943],
  ["COC(=O)CC=C[C@@H](C)[C@@H](C=NOC[C@@H](O)[C@H]1O[C@@H]2OC(C)(C)O[C@@H]2[C@H]1O)OC", "Carbonic anhydrase 2 (Homo sapiens)", -0.131],
  ["CO[C@H]1C[C@@H]2C[C@H](O)CC(CC(=O)O[C@@H](C=CCC(C)C)C[C@@H]3CC[C@H](C)[C@@H](C1)O3)O2", "Carbonic anhydrase 2 (Homo sapiens)", 0.276]
]}

* * *

assay: HepG2 liver cancer cell viability effects, profiling panel, resazurin fluorescence, 24 h, PK04 Diversity Set (AID 1172); settings: higher = more signal

{"columns": ["COMPOUND", "z-score"],
 "data": [
  ["CCOC(=O)CCN1C(=O)[C@H]2[C@H]3[C@H](O)[C@H](O)CC(=NO[C@@H]4O[C@H](CO)[C@@H](O)[C@H](O)[C@H]4O)[C@@H]3CC[C@H]2C1=O", -0.901],
  ["CC(CCC(=O)OC[C@H]1O[C@H](C#Cc2ccccc2)C=C[C@@H]1Oc1ccc(C)cc1)=NOC(C)CN1CCCc2nc(C)c(C)cc21 (stereo partly specified)", -0.374],
  ["C#CCCCON=C1C[C@@H](O)[C@@H](O)[C@@H]2[C@@H]3C(=O)N(C[C@@H]4CCCO4)C(=O)[C@@H]3CC[C@@H]12", 0.475],
  ["CCN1C(=O)[C@H]2[C@H]3[C@H](O)[C@H](O)CC(=NNC(=O)OCc4ccccc4)[C@H]3CC[C@H]2C1=O", -0.0019],
  ["COc1ccc(O[C@H]2C=C[C@@H](c3ccccc3)O[C@@H]2COC(=O)NCc2cccc3ccccc23)cc1", -0.556],
  ["CCOC(=O)[C@H](Cc1ccccc1)NC(=O)CCC1CC(OC(=O)NCc2ccc3c(c2)OCO3)CC2(CCCC(COC(=O)NCCOC)O2)O1 (stereo partly specified)", 0.0491]
]}

* * *

tested on: XIP peptide (Xip251-270); test: small-molecule binders of XIP peptide, primary screen, biochemical, small-molecule microarray, fluorescence 635/667 nm, 0.5 µg/mL protein (AID 1183); details: small-molecule microarray binding, fluorescence 635 nm; higher = more signal
Attribute: composite z-score

{"columns": ["COMPOUND", "composite z-score"],
 "data": [
  ["C=CC[C@@H]1C=CC(ON=C(C)C)[C@@H](CO)O1 (some centres not stated)", -0.0372],
  ["CCOC(=O)[C@H](Cc1ccccc1)NC(=O)CCC1CC(OC(=O)NCc2cccc3ccccc23)CC2(CCCC(COC(=O)NCCOc3ccccc3)O2)O1 (some centres not stated)", 0.512],
  ["CC(=O)OC[C@H]1O[C@@H](ON=C(C)CCN2CCCCc3nc(C)c(C)cc32)[C@H](OC(C)=O)[C@@H](OC(C)=O)[C@@H]1OC(C)=O", 0.566],
  ["CCN1C(=O)[C@H]2[C@H]3[C@H](O)[C@H](O)CC(=NOC[C@@H](O)COCc4ccco4)[C@H]3CC[C@H]2C1=O", 0.505],
  ["CC(=O)OC[C@H]1O[C@H](CC=NOC[C@@H](O)[C@H]2O[C@@H]3OC(C)(C)O[C@@H]3[C@H]2O)C=C[C@@H]1OC(C)=O", 0.732],
  ["CO[C@H]1C[C@@H]2C[C@H](O)CC(CC(=O)O[C@@H](C=CCC(C)C)C[C@@H]3CC[C@H](C)[C@@H](C1)O3)O2", 0.142],
  ["CON=C(C)CCC(=O)OC[C@H]1O[C@H](C#Cc2ccccc2)C=C[C@@H]1Oc1ccc(C)cc1", 0.627]
]}
